System: RS4-11 (MLL-AF4)
Experiment: LTP assay, CellTiterGlo, T4-T14 (Example 103), RS4-11
Format: cell-based
Conditions: Homo sapiens, RS4-11, 96 h, RS4-11 (MLL-AF4), T4 (Day 4); read-out: IC50 T4 (Day 4)
observable: pIC50
Hey, just a heads up that pIC50 is the negative log base 10 of the concentration in molar.

I would be grateful if you could share the reported pIC50 for O=C(Cc1cc(-c2cccnc2)n[nH]1)Nc1ccc(-c2nc3c(N4CCOCC4)ncnc3[nH]2)cc1 [Compound 12] .
6.24

I would be grateful if you could share the reported pIC50 for Cn1nc(-c2cccnc2)cc1CC(=O)Nc1ccc(-c2cc3c(N4CCOCC4)ncnc3[nH]2)cc1 [Compound 11] .
5.91

I would be grateful if you could share the reported pIC50 for O=C(Nc1ccc(-c2nc3c(N4CCOCC4)nccc3[nH]2)cc1)Nc1cc(-c2cccnc2)n[nH]1 [Compound 19] .
5.79

----------
Test system: KG-1
Experiment: Long term proliferation, Cell Titer-Glo (Table 3B), KG-1
Assay type: cell-based
Settings: Homo sapiens, 264 h; KG-1, Cell Titer-Glo, Day 11; read-out: Day 11 IC50
observable: pIC50
Hey, just a heads up that pIC50 is the negative log base 10 of the concentration in molar.

Provide the documented pIC50 with KG-1 as the system for `O=C(Nc1ccc(-c2cc3c(N4CCOCC4)ncnc3[nH]2)cc1)Nc1cc(-c2ccncc2)no1`
5.67

Provide the documented pIC50 with KG-1 as the system for `O=C(Nc1ccc(-c2cc3c(N4CCOCC4)ncnc3[nH]2)cc1)Nc1cc(-c2cccnc2)n[nH]1`
5.77

----------
Assignment: determine reported pIC50 for the given compounds.
Tested on: MOLM-13
Test: Long term proliferation, Cell Titer-Glo (Table 3B), MOLM-13
Assay type: cell-based
Conditions: Homo sapiens, 336 h; MOLM-13, Cell Titer-Glo, Day 14; read-out: Day 14 IC50
Hey, just a heads up that pIC50 is the negative log base 10 of the concentration in molar.

I would be grateful if you could share the reported pIC50 for O=C(Nc1ccc(-c2cc3c(N4CCOCC4)ncnc3[nH]2)cc1)Nc1cc(-c2cccnc2)n[nH]1 [Compound 9] .
6.32

I would be grateful if you could share the reported pIC50 for O=C(Nc1ccc(-c2cc3c(N4CCOCC4)ncnc3[nH]2)cc1)Nc1cc(-c2ccncc2)no1 [Compound 8] .
6.60

----------
System: MOLM-13
Assay: Long term proliferation assay (Table 3A), MOLM-13
Assay type: cell-based
Conditions: Homo sapiens, 264 h; MOLM-13, Day 11; read-out: MOLM-13 Day 11 IC50
pIC50: −log10 of the molar value.
Returns Condition met if the recorded pIC50 is greater than or equal to 7, and Condition not met otherwise.

Determine whether this molecule has pIC50 no lower than 7: `CC(C)c1cc(-c2cc3c(N4CCOCC4)ncnc3[nH]2)ccc1NC(=O)Nc1cc(-c2cccnc2)no1`
Condition not met

Determine whether this molecule has pIC50 no lower than 7: `O=C(Nc1ccc(-c2cc3c(N4CCOCC4)ncnc3[nH]2)cc1)Nc1cc(-c2cccnc2)no1`
Condition met

Determine whether this molecule has pIC50 no lower than 7: `CC(C)c1c(-c2cccnc2)noc1NC(=O)Nc1ccc(-c2cc3c(N4CCOCC4)ncnc3[nH]2)cc1`
Condition met

Determine whether this molecule has pIC50 no lower than 7: `O=C(Nc1ccc(-c2cc3c(N4CCOCC4)ncnc3[nH]2)cc1)Nc1cc(-c2ccncc2)no1`
Condition met

Determine whether this molecule has pIC50 no lower than 7: `O=C(Cc1cc(-c2cccnc2)no1)Nc1ccc(-c2cc3c(N4CCOCC4)ncnc3[nH]2)cc1`
Condition met
